Data provenance: ChEMBL document CHEMBL4480373

# system: Neuropilin-1 (Homo sapiens, UniProt O14786)
# Sequence (O14786 whole entry): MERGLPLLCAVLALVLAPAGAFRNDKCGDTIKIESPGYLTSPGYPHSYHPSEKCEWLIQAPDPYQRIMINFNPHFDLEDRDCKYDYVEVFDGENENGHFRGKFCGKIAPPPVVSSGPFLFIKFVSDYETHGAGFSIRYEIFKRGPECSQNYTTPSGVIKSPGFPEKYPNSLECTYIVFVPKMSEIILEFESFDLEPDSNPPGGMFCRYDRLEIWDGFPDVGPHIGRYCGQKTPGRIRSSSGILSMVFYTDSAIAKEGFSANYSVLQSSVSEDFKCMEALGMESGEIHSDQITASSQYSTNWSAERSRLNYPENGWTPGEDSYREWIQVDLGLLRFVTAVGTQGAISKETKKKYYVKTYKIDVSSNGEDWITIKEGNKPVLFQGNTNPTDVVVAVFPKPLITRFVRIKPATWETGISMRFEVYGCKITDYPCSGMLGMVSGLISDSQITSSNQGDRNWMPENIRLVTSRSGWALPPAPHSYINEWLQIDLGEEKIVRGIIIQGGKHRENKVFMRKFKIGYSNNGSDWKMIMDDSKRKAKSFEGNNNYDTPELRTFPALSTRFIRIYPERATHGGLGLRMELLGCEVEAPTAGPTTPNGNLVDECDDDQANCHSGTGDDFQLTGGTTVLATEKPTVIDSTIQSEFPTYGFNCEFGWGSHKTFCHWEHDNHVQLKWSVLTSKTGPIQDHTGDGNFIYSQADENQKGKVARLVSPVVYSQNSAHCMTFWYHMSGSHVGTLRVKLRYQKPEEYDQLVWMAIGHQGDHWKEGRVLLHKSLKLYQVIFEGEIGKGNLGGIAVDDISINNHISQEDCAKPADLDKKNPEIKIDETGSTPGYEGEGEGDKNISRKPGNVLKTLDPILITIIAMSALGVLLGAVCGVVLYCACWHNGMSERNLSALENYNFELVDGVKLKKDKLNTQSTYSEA
# protocol_summary: Inhibition of human biotinylated VEGF-A165 binding to recombinant human NRP1 receptor after 2 hrs by chemiluminescence analysis
# assay_conditions: read-out: IC50
experimental_readout: IC50 (µM)
Express it in µM; write the number only.

Note to self: IC50 of `H-ATWLPPR-OH` with Neuropilin-1 (Homo sapiens, UniProt O14786) was 84.1

====

# system: Neuropilin-1 (Homo sapiens, UniProt O14786)
# protocol_summary: Inhibition of human biotinylated VEGF-A165 binding to recombinant human NRP1 receptor at 1 uM after 2 hrs by chemiluminescence analysis relative to control
Square brackets hold non-standard residues; d marks the D form. Peptide text beside a SMILES is read from it. Oic = O=C(O)[C@@H]1C[C@@H]2CCCC[C@@H]2N1; Hyp = O=C(O)[C@@H]1C[C@@H](O)CN1; hArg = N=C(N)NCCCC[C@H](N)C(=O)O; Aze = O=C(O)[C@@H]1CCN1; Dab = NCC[C@H](N)C(=O)O
Parameter threshold = 30%. Response is Yes when inhibition meets or exceeds it, else No.

Can N=C(N)NCCCC[C@H](N)C(=O)NCCCC[C@H](N)C(=O)N[C@@H](CCN)C(=O)N1CCC[C@H]1C(=O)N[C@@H](CCCNC(=N)N)C(=O)O (H-K(hArg)[Dab]PR-OH) be said to have inhibition at or above 30%?
No

Does the molecule N=C(N)NCCCC[C@H](N)C(=O)NCCCC[C@H](N)C(=O)N[C@@H](CCN)C(=O)N1CC[C@H]1C(=O)N[C@@H](CCCNC(=N)N)C(=O)O (H-K(hArg)[Dab][Aze]R-OH) have recorded inhibition that is 30% or more?
No

Exam item: decide whether the reported inhibition for N=C(N)NCCCC[C@H](N)C(=O)NCCCC[C@H](N)C(=O)N[C@@H](CCN)C(=O)N1[C@H](C(=O)N[C@@H](CCCNC(=N)N)C(=O)O)C[C@@H]2CCCC[C@@H]21 (H-K(hArg)[Dab][Oic]R-OH) is at least 30%.
Yes

Could you verify whether the entry N=C(N)NCCCC[C@H](N)C(=O)NCCCC[C@H](N)C(=O)N[C@@H](CCN)C(=O)N1C[C@H](O)C[C@H]1C(=O)N[C@@H](CCCNC(=N)N)C(=O)O (H-K(hArg)[Dab][Hyp]R-OH) shows inhibition of no less than 30%?
No

Quick check, inhibition >= 30%? N=C(N)NCCCC[C@H](N)C(=O)NCCCC[C@H](N)C(=O)N1[C@H](C(=O)N2[C@H](C(=O)N[C@@H](CCCNC(=N)N)C(=O)O)C[C@@H]3CCCC[C@@H]32)C[C@@H]2CCCC[C@@H]21 (H-K(hArg)[Oic][Oic]R-OH)
Yes
